- Test system: pigweed (Amaranthus retroflexus)
- MEASUREMENT PROTOCOL: Test A postemergence
- Type: in vivo
- EXPERIMENTAL PARAMETERS: Amaranthus retroflexus, post-emergence, 240 h, 125 g ai/ha, Postemergence, visual rating about 10 d after treatment; read-out: Pigweed plant response rating (0 to 100 scale)
REPORTED ENDPOINT: pest or weed control at 125 g/ha

1. CN1C[C@H](c2ccc3c(c2)OC(F)(F)O3)[C@@H](C(=O)Nc2cccnc2F)C1=O
20%
2. CN1C[C@H](c2ccc3c(c2)C(F)(F)C(F)(F)O3)[C@@H](C(=O)Nc2cccc(F)c2F)C1=O
30%
3. O=C(Nc1ccccc1F)C1C(=O)N(CC(F)F)CC1c1cccc(C(F)(F)F)c1 (stereo not shown)
0%
4. Cc1c(F)ccc([C@H]2CNC(=O)[C@@H]2C(=O)Nc2ccc(F)cc2F)c1F
0%
5. COc1ccc([C@H]2CN(C)C(=O)[C@@H]2C(=O)Nc2ccccc2F)cc1
0%

Provide pest or weed control at 125 g/ha values for the following items, in order.
1. Cc1ccc([C@H]2CN(C)C(=O)[C@@H]2C(=O)Nc2c(F)c(F)c(F)c(F)c2F)cc1
2. CN1C[C@H](c2ccc3c(c2)OC(F)(F)O3)[C@@H](C(=O)Nc2cnccc2C(F)(F)F)C1=O

## Output
1: 0%; 2: 0%
